B1: PhoQ; a variant is named by its letters at X, in order, P23837 (parent)
chain: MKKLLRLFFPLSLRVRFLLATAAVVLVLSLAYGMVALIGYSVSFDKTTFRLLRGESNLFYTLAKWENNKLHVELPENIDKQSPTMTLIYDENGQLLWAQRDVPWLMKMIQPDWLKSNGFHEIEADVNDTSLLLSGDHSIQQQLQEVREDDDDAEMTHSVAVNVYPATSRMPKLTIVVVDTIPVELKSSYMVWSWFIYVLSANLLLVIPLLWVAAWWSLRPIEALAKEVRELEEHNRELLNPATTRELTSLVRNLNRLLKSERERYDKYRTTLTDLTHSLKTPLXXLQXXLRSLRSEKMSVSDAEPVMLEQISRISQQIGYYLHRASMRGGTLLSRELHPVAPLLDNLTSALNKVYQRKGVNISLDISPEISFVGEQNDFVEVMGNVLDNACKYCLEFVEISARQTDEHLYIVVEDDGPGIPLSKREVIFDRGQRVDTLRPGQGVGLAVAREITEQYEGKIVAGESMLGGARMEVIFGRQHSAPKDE

Variants of: B1
Assay comment: enrichment ratio after two sorts for PhoP signalling (ratio (wild type AVST 3.29)); higher = more functional
Conditions used: with PhoP (E. coli)
Whole data set: some 140,000 sequences, median “enrichment ratio after two sorts for PhoP signalling” near 0, cut for the highest 2% near 11. For the sample, the highest values were picked, then their nearest neighbours and some sequences at random.
Reported property: enrichment ratio

Entry `GEHV` ; enrichment ratio = ≤ 0.25

Entry `MTGD` ; enrichment ratio = ≤ 0.25

Entry `FGCH` ; enrichment ratio = ≤ 0.25

Entry `EFNA` ; enrichment ratio = ≤ 0.25

Entry `RMAH` ; enrichment ratio = ≤ 0.25

Entry `AICC` ; enrichment ratio = 5.26

Entry `TCWG` ; enrichment ratio = ≤ 0.25

Entry `KACQ` ; enrichment ratio = ≤ 0.25

Entry `QSWM` ; enrichment ratio = 11.9

Entry `NEIG` ; enrichment ratio = ≤ 0.25

Entry `AEWF` ; enrichment ratio = ≤ 0.25

Entry `QGCC` ; enrichment ratio = ≤ 0.25

Entry `QKNA` ; enrichment ratio = ≤ 0.25

Entry `LPWS` ; enrichment ratio = ≤ 0.25

Entry `SACI` ; enrichment ratio = 13.7

Entry `TEGR` ; enrichment ratio = ≤ 0.25

Entry `QSLA` ; enrichment ratio = ≤ 0.25

Entry `REYW` ; enrichment ratio = ≤ 0.25

Entry `YKYI` ; enrichment ratio = ≤ 0.25

Entry `TQHP` ; enrichment ratio = ≤ 0.25

Entry `LTCC` ; enrichment ratio = ≤ 0.25

Entry `PCAY` ; enrichment ratio = ≤ 0.25

Entry `GPQD` ; enrichment ratio = ≤ 0.25

Entry `NMIK` ; enrichment ratio = ≤ 0.25

Entry `HGCC` ; enrichment ratio = ≤ 0.25

Entry `FIHY` ; enrichment ratio = ≤ 0.25

Entry `TCHP` ; enrichment ratio = ≤ 0.25

Entry `THIS` ; enrichment ratio = ≤ 0.25

Entry `APRY` ; enrichment ratio = ≤ 0.25

Entry `QSRM` ; enrichment ratio = ≤ 0.25

Entry `NGCC` ; enrichment ratio = ≤ 0.25

Entry `CALR` ; enrichment ratio = ≤ 0.25

Entry `TEYV` ; enrichment ratio = 4.31

Entry `SNDM` ; enrichment ratio = ≤ 0.25

Entry `TDCC` ; enrichment ratio = 12.6

Entry `VEWG` ; enrichment ratio = 18.1

Entry `TEMS` ; enrichment ratio = 11.4

Entry `QDPG` ; enrichment ratio = ≤ 0.25

Entry `SAMD` ; enrichment ratio = ≤ 0.25

Entry `TQSF` ; enrichment ratio = 7.45

Entry `GLIF` ; enrichment ratio = ≤ 0.25

Entry `HRMR` ; enrichment ratio = ≤ 0.25

Entry `DTAT` ; enrichment ratio = ≤ 0.25

Entry `ALWL` ; enrichment ratio = ≤ 0.25

Entry `YIVR` ; enrichment ratio = ≤ 0.25

Entry `SNGG` ; enrichment ratio = 7.77

Entry `TWHD` ; enrichment ratio = ≤ 0.25

Entry `QSCK` ; enrichment ratio = ≤ 0.25

Entry `FGCC` ; enrichment ratio = 13.2

Entry `QPWA` ; enrichment ratio = ≤ 0.25

Entry `TQTD` ; enrichment ratio = ≤ 0.25

Entry `YWKI` ; enrichment ratio = ≤ 0.25

Entry `EKAY` ; enrichment ratio = ≤ 0.25

Entry `HDWN` ; enrichment ratio = ≤ 0.25

Entry `TGCC` ; enrichment ratio = 21.5

Entry `QSWA` ; enrichment ratio = 14.9

Entry `EFPG` ; enrichment ratio = ≤ 0.25

Entry `LPCH` ; enrichment ratio = ≤ 0.25
